test system: Cy5 5′-labeled acpP target RNA (40 nt, −20 to +20); assay: Microscale thermophoresis (MST) binding affinity; design: species or system Salmonella; conditions: unconjugated ASO 250-0.007 nM, 5 nM Cy5 RNA; 50 mM Tris-HCl pH 7.6, 250 mM KCl, 5 mM MgCl2; 30 min RT; 25°C; Hill fit; mean ± SD, two independent experiments; read-out: mRNA-binding affinity (EC50)
Measurement Name: pEC50
Lab note — pEC50 values are minus log10 of concentrations in M.

Query block: So what does the record say about pEC50 for RNA-F: 2′-fluorinated RNA 10mer ASO, sequence CTCATACTCT, targeting acpP −5 to +5 (all 2'-fluoro, backbone and T or U not given here) ?
Result block: 7.14

Query block: Which pEC50 value belongs to LNA: 2′–4′-locked RNA 10mer ASO, sequence CTCATACTCT, targeting acpP −5 to +5 (all LNA, backbone and methylation of C not given here) ?
Result block: 9.52

Query block: Given RNA-MOE: 2′-methoxyethylated RNA 10mer ASO, sequence CTCATACTCT, targeting acpP −5 to +5 (all 2'-MOE, backbone and methylation of C not given here) , state its recorded pEC50.
Result block: 9.52

====

System: acpP::gfp reporter transcript
Test: In vitro translation of acpP::gfp reporter (PURExpress) with western blot
Format: biochemical, Salmonella
Parameters: key: +++: Effect strength is represented by additional (+) signs.; ++: Effect strength is represented by additional (+) signs.; Effect strength is represented by additional (+) signs
Conditions: unconjugated ASO; ASO:RNA 0.6:1 to 5:1; 100 nM RNA; 2 h 37°C; summary grade
Excerpt: As a next step, we used a cell-free in vitro translation system ([Popella et al. 2022]) to investigate whether ASO binding to mRNA leads to a block in protein synthesis. […] To visualize in vitro translated proteins, samples were separated on SDS-PAA (12% PAA) gels, with subsequent semi-dry western blot transfer on nitrocellulose membranes. […] Images were processed and band intensities quantified using ImageJ. […]
Measurement Name: Inhibition of translation in vitro

Some substances with known Inhibition of translation in vitro results, for comparison:
Substance	Inhibition of translation in vitro
RNA-F: 2′-fluorinated RNA 10mer ASO, sequence CTCATACTCT, targeting acpP −5 to +5 (all 2'-fluoro, backbone and T or U not given here)	++
LNA: 2′–4′-locked RNA 10mer ASO, sequence CTCATACTCT, targeting acpP −5 to +5 (all LNA, backbone and methylation of C not given here)	+++
RNA-MOE: 2′-methoxyethylated RNA 10mer ASO, sequence CTCATACTCT, targeting acpP −5 to +5 (all 2'-MOE, backbone and methylation of C not given here)	+++
PNA: peptide nucleic acid 10mer ASO, sequence CTCATACTCT, targeting acpP −5 to +5 (all peptide nucleic acid (PNA))	+++

Kindly review the next substance as well.
Query block: Dear colleague, I am looking for the recorded Inhibition of translation in vitro of the following substance: PMO: phosphorodiamidate morpholino 10mer ASO, sequence CTCATACTCT, targeting acpP −5 to +5 (all phosphorodiamidate morpholino (PMO))
Result block: ++

====

system: 5′ Cy5-labeled acpP target RNA (40 nt); experiment: Electrophoretic mobility shift assay (EMSA); assay type: binding, Salmonella; set-up: key: +++: Effect strength is represented by additional (+) signs.; ++: Effect strength is represented by additional (+) signs.; Effect strength is represented by additional (+) signs; details: unconjugated ASO; ASO:RNA 0.3:1 to 2.5:1; summary grade
Measurement Name: mRNA hybridization (EMSA)

Reference set (4 entries):
Substance	Measurement Name	Recorded Result
RNA-F: 2′-fluorinated RNA 10mer ASO, sequence CTCATACTCT, targeting acpP −5 to +5 (all 2'-fluoro, backbone and T or U not given here)	mRNA hybridization (EMSA)	++
RNA-MOE: 2′-methoxyethylated RNA 10mer ASO, sequence CTCATACTCT, targeting acpP −5 to +5 (all 2'-MOE, backbone and methylation of C not given here)	mRNA hybridization (EMSA)	++
LNA: 2′–4′-locked RNA 10mer ASO, sequence CTCATACTCT, targeting acpP −5 to +5 (all LNA, backbone and methylation of C not given here)	mRNA hybridization (EMSA)	+++
PMO: phosphorodiamidate morpholino 10mer ASO, sequence CTCATACTCT, targeting acpP −5 to +5 (all phosphorodiamidate morpholino (PMO))	mRNA hybridization (EMSA)	+

Query block: Recorded mRNA hybridization (EMSA) for PNA: peptide nucleic acid 10mer ASO, sequence CTCATACTCT, targeting acpP −5 to +5 (all peptide nucleic acid (PNA)) , please?
Result block: +++

====

test system: acpP::gfp reporter transcript; assay: In vitro translation of acpP::gfp reporter (PURExpress) with western blot; assay type: biochemical, Salmonella; conditions: unconjugated ASO; western blot of AcpP(1–17)::GFP
Measurement Name: Inhibition of in vitro translation of acpP::gfp (in words)

Substance	Recorded Result
RNA-F: 2′-fluorinated RNA 10mer ASO, sequence CTCATACTCT, targeting acpP −5 to +5 (all 2'-fluoro, backbone and T or U not given here)	less pronounced
RNA-OMe: 2′-methylated RNA 10mer ASO, sequence CTCATACTCT, targeting acpP −5 to +5 (all 2'-O-methyl, backbone and T or U not given here)	less pronounced
PMO: phosphorodiamidate morpholino 10mer ASO, sequence CTCATACTCT, targeting acpP −5 to +5 (all phosphorodiamidate morpholino (PMO))	less pronounced

====

system: Cy5 5′-labeled acpP target RNA (40 nt, −20 to +20); assay: Microscale thermophoresis (MST) binding affinity; parameters: species or system Salmonella; details: unconjugated ASO
Measurement Name: EC50 of binding to target mRNA by MST (in words)

Substance	Tested System	Recorded Result
RNA-MOE: 2′-methoxyethylated RNA 10mer ASO, sequence CTCATACTCT, targeting acpP −5 to +5 (all 2'-MOE, backbone and methylation of C not given here)	Cy5 5′-labeled acpP target RNA (40 nt, −20 to +20)	upper picomolar range
LNA: 2′–4′-locked RNA 10mer ASO, sequence CTCATACTCT, targeting acpP −5 to +5 (all LNA, backbone and methylation of C not given here)	Cy5 5′-labeled acpP target RNA (40 nt, −20 to +20)	upper picomolar range

====

system: Salmonella; experiment: Salmonella growth assay (MIC); assay type: cell-based, Salmonella enterica serovar Typhimurium strain SL1344; settings: ASO conjugated to the KFF carrier peptide; ~10^5 cfu/mL in noncation-adjusted MHB, 37°C, 24 h, OD600; highest concentration 10 µM
Measurement Name: Antibacterial activity (MIC)

Some substances with known Antibacterial activity (MIC) results, for comparison:
Substance	Antibacterial activity (MIC)
DNA-PTO: phosphorothioate-modified DNA 10mer ASO, sequence CTCATACTCT, targeting acpP −5 to +5 (DNA, all phosphorothioate, methylation of C not given here)	>10 µM
RNA-OMe: 2′-methylated RNA 10mer ASO, sequence CTCATACTCT, targeting acpP −5 to +5 (all 2'-O-methyl, backbone and T or U not given here)	>10 µM
LNA: 2′–4′-locked RNA 10mer ASO, sequence CTCATACTCT, targeting acpP −5 to +5 (all LNA, backbone and methylation of C not given here)	>10 µM

Query block: Requested read-out: Antibacterial activity (MIC). Entry: PMO: phosphorodiamidate morpholino 10mer ASO, sequence CTCATACTCT, targeting acpP −5 to +5 (all phosphorodiamidate morpholino (PMO))
Result block: 10 µM

Query block: So what's the measured Antibacterial activity (MIC) for this one? PNA: peptide nucleic acid 10mer ASO, sequence CTCATACTCT, targeting acpP −5 to +5 (all peptide nucleic acid (PNA))
Result block: 1.25 µM

Query block: For the substance RNA-MOE: 2′-methoxyethylated RNA 10mer ASO, sequence CTCATACTCT, targeting acpP −5 to +5 (all 2'-MOE, backbone and methylation of C not given here) , what Antibacterial activity (MIC) is on record?
Result block: >10 µM

Query block: Quick one: Antibacterial activity (MIC) for RNA-F: 2′-fluorinated RNA 10mer ASO, sequence CTCATACTCT, targeting acpP −5 to +5 (all 2'-fluoro, backbone and T or U not given here) ?
Result block: >10 µM

====

test system: Cy5 5′-labeled acpP target RNA (40 nt, −20 to +20); experiment: Microscale thermophoresis (MST) binding affinity; set-up: species or system Salmonella; conditions: unconjugated ASO 250-0.007 nM, 5 nM Cy5 RNA; 50 mM Tris-HCl pH 7.6, 250 mM KCl, 5 mM MgCl2; 30 min RT; 25°C; Hill fit; mean ± SD, two independent experiments; read-out: mRNA-binding affinity (EC50)
Measurement Name: pEC50
The read-out pEC50 is expressed as -log10 of concentration in moles per litre.

Use the examples below as a reference point.
Substance	Measurement Name	Recorded Result
RNA-OMe: 2′-methylated RNA 10mer ASO, sequence CTCATACTCT, targeting acpP −5 to +5 (all 2'-O-methyl, backbone and T or U not given here)	pEC50	8.40
PNA: peptide nucleic acid 10mer ASO, sequence CTCATACTCT, targeting acpP −5 to +5 (all peptide nucleic acid (PNA))	pEC50	9.40

Query block: What pEC50 appears in the records for this substance with Cy5 5′-labeled acpP target RNA (40 nt, −20 to +20)? PMO: phosphorodiamidate morpholino 10mer ASO, sequence CTCATACTCT, targeting acpP −5 to +5 (all phosphorodiamidate morpholino (PMO))
Result block: 8.23

Each recorded value in this set is attributed to paper PMC11098465.
